Give T1/2 for every item shown.
Assayed target: TrkB (Homo sapiens (Human), UniProt Q16620 32-430)
Sequence (Q16620 32-430 limits assumed): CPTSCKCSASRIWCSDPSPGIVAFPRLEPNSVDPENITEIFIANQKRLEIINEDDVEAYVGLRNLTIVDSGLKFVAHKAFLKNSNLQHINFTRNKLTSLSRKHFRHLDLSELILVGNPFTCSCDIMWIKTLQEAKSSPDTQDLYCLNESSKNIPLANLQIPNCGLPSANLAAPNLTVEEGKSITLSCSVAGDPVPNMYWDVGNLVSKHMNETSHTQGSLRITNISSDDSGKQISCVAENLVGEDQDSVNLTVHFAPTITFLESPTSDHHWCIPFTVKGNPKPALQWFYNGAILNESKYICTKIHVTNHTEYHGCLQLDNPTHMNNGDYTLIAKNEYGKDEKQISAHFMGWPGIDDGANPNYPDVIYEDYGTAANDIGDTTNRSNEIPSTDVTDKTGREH
Method: koff of Fab at 25 C; T1/2=Log2/koff
Numbers only, in min.

11-B9 (Fab, V domains shown, Fab) VH: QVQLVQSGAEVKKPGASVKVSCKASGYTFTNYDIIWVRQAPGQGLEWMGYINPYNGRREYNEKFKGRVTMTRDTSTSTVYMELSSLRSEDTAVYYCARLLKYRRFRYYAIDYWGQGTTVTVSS VL: DIQMTQSPSSLSASVGDRVTITCRASTNVYRNLAWYQQKPGKAPKLLIYAASNLQSGVPSRFSGSGSGTDFTFTISSLQPEDIATYYCQHFWGSPFTFGQGTKLEIK    4.9

Here is another binder to look at.
Recorded T1/2 (binder T1-HuC1 (Fab, V domains shown, Fab) VH: QVQLVQSGAEVKKPGASVKVSCKASGYTFTNYDIIWVRQAPGQGLEWMGYINPYNDGTKYNEKFKGRVTMTRDTSTSTVYMELSSLRSEDTAVYYCARLLKYRRFSYYAIDYWGQGTTVTVSS VL: DIQMTQSPSSLSASVGDRVTITCRASENVYSNLAWYQQKPGKAPKLLIYAASNLADGVPSRFSGSGSGTDFTFTISSLQPEDIATYYCQHFWYSPFTFGQGTKLEIK ): 1.7
